- assay.explanation: Pharmacokinetic study after oral dosing, rat
- Type: in vivo, SD Rat
- experimental.context: male, SD (Sprague-Dawley), rat, in vivo, po, 30 mg/kg, oral; suspension in 0.5% methocel + 0.1% tween 80 in water; SD Rat male; 30 mg/kg; particle size D50 = 5.1 μm; Fed; 5 mL/kg; read-out: C24 h
- Description: The pharmacokinetic profile of (S)-4-(2,2-difluoro-7-((5-methoxy-7-methyl-1H-indol-4-yl)methyl)-7-azaspiro[3.5]nonan-6-yl)benzoic acid was assessed in rats, dogs or non-human primates (NHPs) as the amorphous compound as a solution in 20% kleptose in water and as a suspension of Form A in 0.5% methocel+0.1% tween 80 in water. […]
quantity.measured: concentration at 24 h (nM)
Give bare numbers, in nM.

Ask | So what does the record say about concentration at 24 h for COc1cc(C)c2[nH]ccc2c1CN1CCC2(C[C@H]1c1ccc(C(=O)O)cc1)CC(F)(F)C2 [Form A] ?
Reply | 1900

Provenance of the data: patent US20260159497A1
